- tested.system: UniProtKB Q13822
- method.summary: Inhibition of human recombinant ATX using Rac-1-Palmitoyl-glycero-3-phosphocholine as substrate incubated for 2 hrs using ADHP fluorogenic peroxidase substrate by horseradish peroxidase/choline oxidase-coupled assay
Collected pIC50 values appear next to each entry.
Lab note — pIC50 values are minus log10 of concentrations in M.

Example results:
O=C(CCc1nc2cccnc2n1Cc1ccccc1)NCc1ccccc1F = 5.90
C[C@H](NC(=O)CCc1nc2cccnc2n1Cc1ccc(OC(F)F)cc1)c1ccc(Cl)cc1 = 8.70
O=C(CCc1nc2cccnc2n1Cc1ccccc1)NCC1CCCCC1 = 6.35
C[C@H](NC(=O)OCc1nc2cccnc2n1Cc1ccc(F)cc1)c1ccc(F)cc1 = 6.44

Now for another entry.
Problem: # query: pIC50 of entry CS(=O)(=O)c1ccc(CNC(=O)CCc2nc3cccnc3n2Cc2ccccc2)cc1
Solution: 5.17

###

- method.summary: Intrinsic clearance in human liver microsomes assessed per gram of liver at 1 uM in presence of NADPH regenerating system measured up to 45 mins by UPLC/MS/MS analysis
- Assay type: ADME
- experimental.setup: 0.75 h
Answer 0.0 if CLH is under 20 mL/min/g, and 1.0 if it is 20 mL/min/g or more.

C[C@H](NC(=O)CCc1nc2cccnc2n1Cc1ccccc1)c1ccccc1 = 1.0
O=C(CCc1nc2cccnc2n1Cc1ccccc1)NCC1CCCCC1 = 0.0
O=C(CCc1nc2cccnc2n1Cc1ccccc1)NCc1ccc(F)cc1 = 1.0
C[C@H](NC(=O)CCc1nc2cccnc2n1Cc1ccc(OC(F)(F)F)cc1)c1ccc(Cl)cc1 = 0.0

Problem: Is reported CLH greater than or equal to 20 mL/min/g here: COc1ccc(Cn2c(CCC(=O)N[C@@H](C)c3ccccc3)nc3cccnc32)cc1
Solution: 1.0

###

Collected log10 IC50 values appear next to each entry.
- tested.system: UniProt Q13822
- method.summary: Inhibition of human recombinant ATX using Rac-1-Palmitoyl-glycero-3-phosphocholine as substrate incubated for 2 hrs using ADHP fluorogenic peroxidase substrate by horseradish peroxidase/choline oxidase-coupled assay
Please keep in mind that the values are log10 of IC50 expressed in nM.

Example results:
COc1cccc(CNC(=O)CCc2nc3cccnc3n2Cc2ccccc2)c1 = 3.47
O=C(CCc1nc2cccnc2n1Cc1ccccc1)NCc1cccc(F)c1 = 3.10
C[C@H](NC(=O)C[S+]([O-])c1nc2cccnc2n1Cc1ccc(OC(F)(F)F)cc1)c1ccc(F)cc1 (stereo in doubt; 26b) = 2.25
O=C(CCc1nc2cccnc2n1Cc1ccc(F)cc1)N[C@@H](CO)c1ccc(Cl)cc1 = 0.70

Now for another entry.
Problem: # query: log10 IC50 of entry C[C@H](NC(=O)CCc1nc2cccnc2n1Cc1ccc(OC(F)(F)F)cc1)c1ccc(Cl)cc1 [CAMBRITAXESTAT]
Solution: 0.00

###

- method.summary: Cmax in Balb-c nu/nu mouse at 10 mg/kg, po measured up to 7 hrs by UPLC/MS/MS spectrometry analysis
- Assay type: ADME, organism-based
- Set-up: dose 10 mg/kg, route oral
- experimental.setup: in vivo
measured.attribute: Cmax (µM)
Write the answer as a number in µM, unit excluded.

Problem: # query: Cmax of entry C[C@H](NC(=O)CCc1nc2cccnc2n1Cc1ccc(OC(F)(F)F)cc1)c1ccc(Cl)cc1
Solution: 3.8

###

- method.summary: Intrinsic clearance in rat liver microsomes assessed per gram of liver
- Format: ADME
measured.attribute: CLH (mL/min/g)
Write the answer as a number in mL/min/g, unit excluded.

Problem: # query: CLH of entry C[C@H](NC(=O)CCc1nc2cccnc2n1Cc1ccc(OC(F)(F)F)cc1)c1ccc(Cl)cc1
Solution: 15

###

Collected CLH values appear next to each entry.
- method.summary: Intrinsic clearance in CD1 mouse liver microsomes assessed per gram of liver at 1 uM in presence of NADPH regenerating system measured up to 45 mins by UPLC/MS/MS analysis
- Type: ADME
- experimental.setup: 0.75 h
Write the answer as a number in mL/min/g, unit excluded.

Example results:
C[C@H](NC(=O)CCc1nc2cccnc2n1Cc1ccc(OC(F)(F)F)cc1)c1ccc(Cl)cc1 [CAMBRITAXESTAT] = 44.1
C[C@H](NC(=O)CCc1nc2cccnc2n1Cc1ccc(C(F)(F)F)cc1)c1ccc(Cl)cc1 = 26.5

Problem: # query: CLH of entry C[C@H](NC(=O)CCc1nc2cccnc2n1Cc1ccccc1)c1ccccc1
Solution: 21.4

Problem: # query: CLH of entry C[C@H](NC(=O)CSc1nc2cccnc2n1Cc1ccc(OC(F)(F)F)cc1)c1ccc(F)cc1
Solution: 71.5

Problem: # query: CLH of entry C[C@H](NC(=O)COc1nc2cccnc2n1Cc1ccc(OC(F)(F)F)cc1)c1ccc(Cl)cc1
Solution: 10.8

Problem: # query: CLH of entry C[C@H](NC(=O)NCc1nc2cccnc2n1Cc1ccc(F)cc1)c1ccc(F)cc1
Solution: 10

Problem: # query: CLH of entry C[C@H](NC(=O)CCc1nc2ccncc2n1Cc1ccc(OC(F)(F)F)cc1)c1ccc(Cl)cc1
Solution: 18.1

Problem: # query: CLH of entry C[C@H](NC(=O)C[S+]([O-])c1nc2cccnc2n1Cc1ccc(OC(F)(F)F)cc1)c1ccc(F)cc1 (stereo in doubt; 26b)
Solution: 19.8

Problem: # query: CLH of entry O=C(CCc1nc2cccnc2n1Cc1ccccc1)NCc1ccc(F)cc1
Solution: 23.9

###

- method.summary: Cmax in Balb-c nu/nu mouse at 30 mg/kg, po measured up to 7 hrs by UPLC/MS/MS spectrometry analysis
- Type: ADME, organism-based
- Parameters: dose 30 mg/kg, route oral
- experimental.setup: in vivo
measured.attribute: Cmax (µM)
Write the answer as a number in µM, unit excluded.

Problem: # query: Cmax of entry C[C@H](NC(=O)CCc1nc2cccnc2n1Cc1ccc(OC(F)(F)F)cc1)c1ccc(Cl)cc1 [CAMBRITAXESTAT]
Solution: 10.9

###

- method.summary: AUC in Balb-c nu/nu mouse at 10 mg/kg, po measured up to 7 hrs by UPLC/MS/MS spectrometry analysis
- Format: ADME, organism-based
- Design: time < 7 hr, dose 10 mg/kg, route oral
- experimental.setup: in vivo
measured.attribute: AUC at 7 h (µM·h)
Write the answer as a number in µM·h, unit excluded.

Problem: # query: AUC at 7 h of entry C[C@H](NC(=O)CCc1nc2cccnc2n1Cc1ccc(OC(F)(F)F)cc1)c1ccc(Cl)cc1 [CAMBRITAXESTAT]
Solution: 3.2

###

- method.summary: Half life in Balb-c nu/nu mouse blood at 10 mg/kg, po measured up to 7 hrs by UPLC/MS/MS spectrometry analysis
- Type: ADME, organism-based
measured.attribute: half-life (h)
Write the answer as a number in h, unit excluded.

Problem: # query: half-life of entry C[C@H](NC(=O)CCc1nc2cccnc2n1Cc1ccc(OC(F)(F)F)cc1)c1ccc(Cl)cc1
Solution: 1.4

###

- method.summary: in vivo
- experimental.setup: Sprague-Dawley, rat, po, 3 mg/kg
measured.attribute: bioavailability at 20 h (%)
Write the answer as a number in %, unit excluded.

Problem: # query: bioavailability at 20 h of entry C[C@H](NC(=O)CCc1nc2cccnc2n1Cc1ccc(OC(F)(F)F)cc1)c1ccc(Cl)cc1 [CAMBRITAXESTAT]
Solution: 28

###

- method.summary: Volume of distribution at steady state in CD1 mouse at 1 mg/kg, iv administered as bolus dose measured up to 7 hrs by UPLC/MS/MS spectrometry analysis
- Format: ADME, organism-based
- experimental.setup: in vivo, read-out: Vdss
Collected Vd values appear next to each entry.
Write the answer as a number in L/kg, unit excluded.

C[C@H](NC(=O)CCc1nc2cccnc2n1Cc1ccc(OC(F)F)cc1)c1ccc(Cl)cc1 = 0.4
C[C@H](NC(=O)NCc1nc2cccnc2n1Cc1ccc(F)cc1)c1ccc(F)cc1 = 0.3
C[C@H](NC(=O)CSc1nc2cccnc2n1Cc1ccc(OC(F)(F)F)cc1)c1ccc(F)cc1 = 0.3
O=C(CCc1nc2cccnc2n1Cc1ccc(F)cc1)N[C@@H](CO)c1ccc(Cl)cc1 = 0.2

Problem: # query: Vd of entry C[C@H](NC(=O)CCc1nc2ccncc2n1Cc1ccc(OC(F)(F)F)cc1)c1ccc(Cl)cc1
Solution: 0.2

Problem: # query: Vd of entry C[C@H](NC(=O)C[S+]([O-])c1nc2cccnc2n1Cc1ccc(OC(F)(F)F)cc1)c1ccc(F)cc1 (stereo in doubt; 26a)
Solution: 0.2

Problem: # query: Vd of entry C[C@H](NC(=O)CCc1nc2cccnc2n1Cc1ccc(OC(F)(F)F)cc1)c1ccc(Cl)cc1
Solution: 1.3

Problem: # query: Vd of entry C[C@H](NC(=O)CCc1nc2cccnc2n1Cc1ccc(C(F)(F)F)cc1)c1ccc(Cl)cc1
Solution: 0.88
